Collected corrosion rate values appear next to each entry.
- method-notes: Corrosion rate by LPR sweep, copper coupons in synthetic water, 50° C., 1 ppm free chlorine after 0.5 hrs (Examples 1 and 2)
- assay-setup: 2 ppm; 3 hrs
Numeric only. Scale: mpy

CCCCCCCCCCCC(=O)NCCN(CCOCC(=O)[O-])CC(=O)[O-].[Na+].[Na+] [DLADAA, Disodium Lauroamphodiacetate] = 0.2159
CCCCCCCC(=O)NCCN(CCOCCC(=O)[O-])CCC(=O)[O-].[Na+].[Na+] [DCADPP, Disodium Capryloamphodipropionate] = 1.3090
CCCCCCCCCCCCN(CCC(=O)[O-])CCC(=O)O.[Na+] [SL, Sodium Lauriminodipropionate, reference compound] = 0.3498

Now for the compound whose corrosion rate we want.
Please fill in: corrosion rate reported for CCCCCCCC(=O)NCCN(CCOCC(=O)[O-])CC(=O)[O-].[Na+].[Na+] [DCyADAA, Disodium Capryloamphodiacetate] = 1.3860
